Reported IC50 values follow for various molecules
TARGET_UNDER_TEST: UniProt:P9WLH5
Sequence (P9WLH5 whole entry): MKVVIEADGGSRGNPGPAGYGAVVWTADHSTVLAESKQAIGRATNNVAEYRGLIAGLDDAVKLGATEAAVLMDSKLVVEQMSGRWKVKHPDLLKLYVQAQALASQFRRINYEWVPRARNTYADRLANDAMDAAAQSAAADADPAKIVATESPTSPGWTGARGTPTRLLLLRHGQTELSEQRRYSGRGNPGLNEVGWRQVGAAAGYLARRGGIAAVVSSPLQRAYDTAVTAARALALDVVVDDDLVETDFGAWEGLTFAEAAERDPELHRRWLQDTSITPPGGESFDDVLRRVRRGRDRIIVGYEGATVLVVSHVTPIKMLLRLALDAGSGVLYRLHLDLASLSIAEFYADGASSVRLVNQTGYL
EXPERIMENT_NOTES: biochemical
MEASURED_PARAMETER: IC50 (µM)

CC(C)c1ccc(O)c(=O)c(O)c1 ... 32
O=S(=O)(N/N=C/c1c(O)ccc2ccccc12)c1cc(Cl)c(Cl)cc1Cl ... 45
COc1ccc(C2COc3cc(O)c(O)cc3C2)cc1 (stereo not shown) ... 17
Oc1ccc(-c2csc(Nc3ccccn3)n2)cc1O ... 12

The reported numbers originate from paper doi:10.1101/2021.07.14.452003v1.
